# Assay target: TAOK3 (Homo sapiens)
# Construct: purchased Eurofins (radiometric) / Eurofins DiscoverX scanMAX / Reaction Biology / SignalChem
# Sequence (Q9H2K8 1-898): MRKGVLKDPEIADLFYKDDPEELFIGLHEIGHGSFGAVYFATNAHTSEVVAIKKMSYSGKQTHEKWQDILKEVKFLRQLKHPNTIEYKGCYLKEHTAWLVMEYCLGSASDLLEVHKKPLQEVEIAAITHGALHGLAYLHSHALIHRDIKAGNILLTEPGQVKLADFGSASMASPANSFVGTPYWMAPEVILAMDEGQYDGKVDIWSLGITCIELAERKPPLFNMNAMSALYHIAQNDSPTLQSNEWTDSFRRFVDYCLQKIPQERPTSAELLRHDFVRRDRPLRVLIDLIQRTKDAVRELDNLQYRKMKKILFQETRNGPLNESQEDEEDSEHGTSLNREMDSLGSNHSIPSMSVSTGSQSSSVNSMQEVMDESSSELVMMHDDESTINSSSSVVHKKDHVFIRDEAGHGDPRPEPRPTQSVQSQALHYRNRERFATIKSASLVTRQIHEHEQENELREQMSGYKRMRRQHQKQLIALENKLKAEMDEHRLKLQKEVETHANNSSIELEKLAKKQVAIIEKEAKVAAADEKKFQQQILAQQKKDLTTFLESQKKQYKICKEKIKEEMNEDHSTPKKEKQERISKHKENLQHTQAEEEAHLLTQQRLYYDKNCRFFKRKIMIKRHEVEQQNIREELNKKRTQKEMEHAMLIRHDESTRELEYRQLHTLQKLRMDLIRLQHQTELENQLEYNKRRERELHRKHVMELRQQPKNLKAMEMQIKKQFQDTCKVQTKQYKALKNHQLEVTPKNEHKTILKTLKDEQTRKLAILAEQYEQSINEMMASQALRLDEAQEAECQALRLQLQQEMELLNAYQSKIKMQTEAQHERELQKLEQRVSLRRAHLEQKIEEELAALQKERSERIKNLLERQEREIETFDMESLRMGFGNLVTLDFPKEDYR
# Protocol notes: Eurofins enzymatic radiometric kinase assay
# Assay type: biochemical
# Condition label: ATP at Km, duplicate
Measured endpoint: TAOK3 PoC at 1 μM (PoC)
Number only, in PoC; omit the unit.

Noted for CC(C)(O)C#Cc1ccc2[nH]c3c(c2c1)-c1nc(N)ncc1CCCC3 [Compound 2] : its TAOK3 PoC at 1 μM reads 78

Reported TAOK3 PoC at 1 μM for CC(C)(O)C#Cc1ccc2[nH]cc(-c3ccnc(N)n3)c2c1 [Compound 3] was 20

# TAOK3 PoC at 1 μM of COC(C)(C)C#Cc1ccc2[nH]c3c(c2c1)-c1nc(N)ncc1CCC3 [Compound 11] = 89

Kindly note the recorded TAOK3 PoC at 1 μM for CC(C)(O)C#Cc1ccc2[nH]c3c(c2c1)-c1nc(N)ncc1CCC3 [AMG28, reference compound] , which is 9

Measured TAOK3 PoC at 1 μM, CC(C)(O)C#Cc1ccc2[nH]c3c(c2c1)-c1nc(N)ncc1CC3 [Compound 1] : 11

---

# Assay target: HIPK1 (Homo sapiens, UniProt Q86Z02)
# Construct: purchased Eurofins (radiometric) / Eurofins DiscoverX scanMAX / Reaction Biology / SignalChem
# Sequence (Q86Z02 whole entry): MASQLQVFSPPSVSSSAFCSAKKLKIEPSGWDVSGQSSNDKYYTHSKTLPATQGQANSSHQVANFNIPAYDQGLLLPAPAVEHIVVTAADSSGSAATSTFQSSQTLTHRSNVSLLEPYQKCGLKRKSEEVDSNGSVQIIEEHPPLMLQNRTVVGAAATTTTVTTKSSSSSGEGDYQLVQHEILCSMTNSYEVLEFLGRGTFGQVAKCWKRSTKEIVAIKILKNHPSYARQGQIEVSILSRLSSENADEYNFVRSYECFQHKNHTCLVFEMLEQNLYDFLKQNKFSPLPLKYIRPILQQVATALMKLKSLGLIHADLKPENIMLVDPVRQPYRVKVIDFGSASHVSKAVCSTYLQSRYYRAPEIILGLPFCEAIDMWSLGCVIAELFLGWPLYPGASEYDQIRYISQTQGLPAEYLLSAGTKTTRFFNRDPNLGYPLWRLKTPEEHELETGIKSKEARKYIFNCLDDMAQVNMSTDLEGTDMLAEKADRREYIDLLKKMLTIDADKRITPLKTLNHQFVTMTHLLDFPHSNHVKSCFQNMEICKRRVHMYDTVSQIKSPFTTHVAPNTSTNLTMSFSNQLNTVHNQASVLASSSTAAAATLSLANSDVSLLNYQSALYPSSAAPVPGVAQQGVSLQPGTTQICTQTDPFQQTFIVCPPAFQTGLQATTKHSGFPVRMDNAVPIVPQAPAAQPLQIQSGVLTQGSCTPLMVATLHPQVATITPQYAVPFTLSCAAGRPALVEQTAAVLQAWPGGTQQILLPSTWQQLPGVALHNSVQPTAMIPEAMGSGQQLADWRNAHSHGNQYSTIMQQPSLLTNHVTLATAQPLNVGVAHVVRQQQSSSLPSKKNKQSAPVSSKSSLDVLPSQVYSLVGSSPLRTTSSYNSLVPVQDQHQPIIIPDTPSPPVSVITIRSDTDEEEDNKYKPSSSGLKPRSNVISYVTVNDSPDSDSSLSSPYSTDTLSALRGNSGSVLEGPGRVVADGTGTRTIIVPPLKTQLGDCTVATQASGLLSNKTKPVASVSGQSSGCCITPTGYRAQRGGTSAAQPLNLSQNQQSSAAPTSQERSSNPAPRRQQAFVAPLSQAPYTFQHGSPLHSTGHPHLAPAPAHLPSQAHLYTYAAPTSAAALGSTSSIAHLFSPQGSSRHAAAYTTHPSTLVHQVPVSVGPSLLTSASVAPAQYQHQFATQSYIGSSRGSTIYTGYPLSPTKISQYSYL
# Protocol notes: Eurofins enzymatic radiometric kinase assay
# Type: biochemical
# Condition label: ATP at Km, duplicate
Measured endpoint: HIPK1 PoC at 1 μM (PoC)
# output: bare number, implied unit PoC

# compound CC(C)(O)C#Cc1ccc2[nH]cc(-c3ccnc(N)n3)c2c1 [Compound 3] ; its HIPK1 PoC at 1 μM = 87

Note to self: HIPK1 PoC at 1 μM recorded for CC(C)(O)C#Cc1ccc2[nH]c3c(c2c1)-c1nc(N)ncc1CC3 [Compound 1] was 76

HIPK1 PoC at 1 μM for COC(C)(C)C#Cc1ccc2[nH]c3c(c2c1)-c1nc(N)ncc1CCC3 [Compound 11] is 96

Sample CC(C)(O)C#Cc1ccc2[nH]c3c(c2c1)-c1nc(N)ncc1CCC3 [AMG28, reference compound] ; HIPK1 PoC at 1 μM observed: 67

Memo: CC(C)(O)C#Cc1ccc2[nH]c3c(c2c1)-c1nc(N)ncc1CCCC3 [Compound 2] , reported HIPK1 PoC at 1 μM: 96
